Data provenance is PubChem BioAssay AID1918932.

Tested on: 171881-019-R-J1-PDC complex spheroid viability
Method: Anticancer human tumor 171881-019-R-J1-PDC patient-derived invasive breast carcinoma cell line growth inhibition
Measurement parameters: curve of compound
pIC50: −log10 of the molar value.
compounds and their reported pIC50

INSERT INTO assay_data (compound, reported_endpoint, result) VALUES
  ('Nc1ccn(C2OC(CO)C(O)C2(F)F)c(=O)n1 (stereo not given)', 'pIC50', '< 6.52'),
  ('Cn1ncnc1C1c2n[nH]c(=O)c3cc(F)cc(c23)NC1c1ccc(F)cc1 (stereo not given)', 'pIC50', '< 7.00'),
  ('CC(C)CC(NC(=O)C(Cc1ccccc1)NC(=O)c1cnccn1)B(O)O (stereo not given)', 'pIC50', '> 9.50'),
  ('O=C(C=Cn1cnc(-c2cc(C(F)(F)F)cc(C(F)(F)F)c2)n1)NNc1cnccn1', 'pIC50', '> 8.50');

Next:
The compound Nc1ncn(C2CC(O)C(CO)O2)c(=O)n1 (stereo not given) showed pIC50 equal to < 6.00

====

// values below are reported viability, T/C
Tested on: 171881-019-R-J1-PDC complex spheroid viability
Method: Anticancer human tumor 171881-019-R-J1-PDC cell line growth inhibition;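 also: spheroids exposed to agents for 7 days after 3 days growth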
Measurement parameters: second compound 3.16 µM; first compound 0.3 µM; stronger effect = lower value
Supply the numeric figure in %, leaving out any unit text.

INSERT INTO results (compound, measured_on, measured_number) VALUES
  ('COc1cc(C2c3cc4c(cc3C(OC3OC5COC(C)OC5C(O)C3O)C3COC(=O)C23)OCO4)cc(OC)c1O (configuration not stated) + NC1CC1c1ccc(-c2cccc(O)c2)cc1', '171881-019-R-J1-PDC complex spheroid viability', 59),
  ('CCN(c1cc(-c2ccc(CN3CCOCC3)cc2)cc(C(=O)NCc2c(C)cc(C)[nH]c2=O)c1C)C1CCOCC1 + NC1CCC(NC2CC2c2ccccc2)CC1', '171881-019-R-J1-PDC complex spheroid viability', 81.8);

Case CCc1c2c(nc3ccc(O)cc13)-c1cc3c(c(=O)n1C2)COC(=O)[C@]3(O)CC + NC1CCC(NC2CC2c2ccccc2)CC1 , 171881-019-R-J1-PDC complex spheroid viability, viability, T/C recorded as 7.23

Here Nc1ccn(C2OC(CO)C(O)C2(F)F)c(=O)n1 (configuration not stated) + NC1CCC(NC2CC2c2ccccc2)CC1 was tested on 171881-019-R-J1-PDC complex spheroid viability, and its viability, T/C came to 54.7

viability, T/C value, target or system 171881-019-R-J1-PDC complex spheroid viability, for Nc1ncn(C2CC(O)C(CO)S2)c(=O)n1 (configuration not stated) + NC1CC1c1ccc(-c2cccc(O)c2)cc1 : 30.1

Form field, viability, T/C with 171881-019-R-J1-PDC complex spheroid viability, item Nc1ccccc1NC(=O)c1ccc(CNC(=O)OCc2cccnc2)cc1 + NC1CC1c1ccc(-c2cccc(O)c2)cc1 : 80.6

# lookup: COc1cc(C2c3cc4c(cc3C(OC3OC5COC(C)OC5C(O)C3O)C3COC(=O)C23)OCO4)cc(OC)c1O (configuration not stated) + NC1CCC(NC2CC2c2ccccc2)CC1 on 171881-019-R-J1-PDC complex spheroid viability, viability, T/C = 60.3

====

System: 171881-019-R-J1-PDC complex spheroid viability
Method: Anticancer human tumor 171881-019-R-J1-PDC cell line growth inhibition;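 also: spheroids exposed to agents for 7 days after 3 days growth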
Measurement parameters: second compound 0.1 µM; first compound 0.3 µM; stronger effect = lower value
Catalogue of molecules with associated viability, T/C
Respond with the bare value in %.

INSERT INTO measurements (molecule, measured_number) VALUES
  ('CCN(c1cc(-c2ccc(CN3CCOCC3)cc2)cc(C(=O)NCc2c(C)cc(C)[nH]c2=O)c1C)C1CCOCC1 + NC1CC1c1ccc(-c2cccc(O)c2)cc1', 84.8),
  ('NS(=O)(=O)OCC1CC(n2ccc3c(NC4CCc5ccccc54)ncnc32)CC1O (configuration not stated) + NC1CCC(NC2CC2c2ccccc2)CC1', 23.5),
  ('O=C(C=Cc1cccc(S(=O)(=O)Nc2ccccc2)c1)NO + NC1CCC(NC2CC2c2ccccc2)CC1', 69.3);

For reference, reported viability, T/C for Nc1ncn(C2CC(O)C(CO)S2)c(=O)n1 (configuration not stated) + NC1CC1c1ccc(-c2cccc(O)c2)cc1 stands at 34.4

Reported viability, T/C of CCc1c2c(nc3ccc(O)cc13)-c1cc3c(c(=O)n1C2)COC(=O)[C@]3(O)CC + NC1CC1c1ccc(-c2cccc(O)c2)cc1 : 19.3

Per the records, this molecule ( NS(=O)(=O)OCC1CC(n2ccc3c(NC4CCc5ccccc54)ncnc32)CC1O (configuration not stated) + NC1CC1c1ccc(-c2cccc(O)c2)cc1 ) has viability, T/C equal to 27.4

COc1cc(C2c3cc4c(cc3C(OC3OC5COC(C)OC5C(O)C3O)C3COC(=O)C23)OCO4)cc(OC)c1O (configuration not stated) + NC1CCC(NC2CC2c2ccccc2)CC1 has a reported viability, T/C of 56.8

====

Test system: 171881-019-R-J1-PDC complex spheroid viability
Method: Anticancer human tumor 171881-019-R-J1-PDC cell line growth inhibition;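 also: spheroids exposed to agents for 7 days after 3 days growth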
Measurement parameters: second compound 3.16 µM; first compound 0.03 µM; stronger effect = lower value
Reported endpoint: viability, T/C (%)
// return numeric value only (unit: %, not printed)

Worked examples, 5 molecules total:
INSERT INTO assay_data (molecule, measured_on, measured_number) VALUES
  ('NS(=O)(=O)OCC1CC(n2ccc3c(NC4CCc5ccccc54)ncnc32)CC1O (configuration not stated) + NC1CCC(NC2CC2c2ccccc2)CC1', '171881-019-R-J1-PDC complex spheroid viability', 51.2),
  ('CCc1c2c(nc3ccc(O)cc13)-c1cc3c(c(=O)n1C2)COC(=O)[C@]3(O)CC + NC1CC1c1ccc(-c2cccc(O)c2)cc1', '171881-019-R-J1-PDC complex spheroid viability', 13.8),
  ('CCc1c2c(nc3ccc(O)cc13)-c1cc3c(c(=O)n1C2)COC(=O)[C@]3(O)CC + NC1CCC(NC2CC2c2ccccc2)CC1', '171881-019-R-J1-PDC complex spheroid viability', 21.9),
  ('CCN(c1cc(-c2ccc(CN3CCOCC3)cc2)cc(C(=O)NCc2c(C)cc(C)[nH]c2=O)c1C)C1CCOCC1 + NC1CC1c1ccc(-c2cccc(O)c2)cc1', '171881-019-R-J1-PDC complex spheroid viability', 91.7),
  ('Nc1ncn(C2CC(O)C(CO)S2)c(=O)n1 (configuration not stated) + NC1CC1c1ccc(-c2cccc(O)c2)cc1', '171881-019-R-J1-PDC complex spheroid viability', 69.2);

Short answer for COc1cc(C2c3cc4c(cc3C(OC3OC5COC(C)OC5C(O)C3O)C3COC(=O)C23)OCO4)cc(OC)c1O (configuration not stated) + NC1CCC(NC2CC2c2ccccc2)CC1 : viability, T/C was 99.1

So for O=C(C=Cc1cccc(S(=O)(=O)Nc2ccccc2)c1)NO + NC1CCC(NC2CC2c2ccccc2)CC1 , the logged viability, T/C turned out to be 105

====

Tested on: 171881-019-R-J1-PDC complex spheroid viability
Method: Anticancer human tumor 171881-019-R-J1-PDC cell line growth inhibition;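 also: spheroids exposed to agents for 7 days after 3 days growth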
Measurement parameters: second compound 0.1 µM; first compound 0.00949 µM; stronger effect = lower value
Reported endpoint: viability, T/C (%)
Give the value, in units of %, as a plain number.

A selection of reference data follows.
INSERT INTO measurements (molecule, measure_unit, measured_number) VALUES
  ('NS(=O)(=O)OCC1CC(n2ccc3c(NC4CCc5ccccc54)ncnc32)CC1O (configuration not stated) + NC1CC1c1ccc(-c2cccc(O)c2)cc1', '%', 51.1),
  ('COc1cc(C2c3cc4c(cc3C(OC3OC5COC(C)OC5C(O)C3O)C3COC(=O)C23)OCO4)cc(OC)c1O (configuration not stated) + NC1CCC(NC2CC2c2ccccc2)CC1', '%', 72.8);

Input Nc1ccccc1NC(=O)c1ccc(CNC(=O)OCc2cccnc2)cc1 + NC1CC1c1ccc(-c2cccc(O)c2)cc1 . Output viability, T/C: 101

Entry under test: O=C(C=Cc1cccc(S(=O)(=O)Nc2ccccc2)c1)NO + NC1CCC(NC2CC2c2ccccc2)CC1 . Its viability, T/C was 81.7

====

Tested on: 171881-019-R-J1-PDC complex spheroid viability
Method: Anticancer human tumor 171881-019-R-J1-PDC cell line growth inhibition;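 also: spheroids exposed to agents for 7 days after 3 days growth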
Measurement parameters: second compound 0.316 µM; first compound 0.0316 µM; stronger effect = lower value
Item-by-item account of viability, T/C
Express it in %; write the number only.

INSERT INTO results (compound, measured_number) VALUES
  ('COc1cc(Nc2ncc3c(n2)-c2ccc(Cl)cc2C(c2c(F)cccc2OC)=NC3)ccc1C(=O)O + NC1CC1c1ccc(-c2cccc(O)c2)cc1', 68),
  ('Cn1ncnc1C1c2n[nH]c(=O)c3cc(F)cc(c23)NC1c1ccc(F)cc1 (configuration not stated) + NC1CCC(NC2CC2c2ccccc2)CC1', 81.8),
  ('CC1COCCN1c1cc(-c2ccnn2C)c2ccnc(-c3ccn[nH]3)c2n1 (configuration not stated) + NC1CCC(NC2CC2c2ccccc2)CC1', 19),
  ('CC1COCCN1c1cc(C2(S(C)(=N)=O)CC2)nc(-c2ccnc3[nH]ccc23)n1 (configuration not stated) + NC1CCC(NC2CC2c2ccccc2)CC1', 85.1),
  ('CC(C)CC(NC(=O)CNC(=O)c1cc(Cl)ccc1Cl)B1OC(=O)CC(CC(=O)O)(C(=O)O)O1 (configuration not stated) + NC1CC1c1ccc(-c2cccc(O)c2)cc1', 13.9);

Consider CC(C)CC(NC(=O)C(Cc1ccccc1)NC(=O)c1cnccn1)B(O)O (configuration not stated) + NC1CC1c1ccc(-c2cccc(O)c2)cc1 . Its measured viability, T/C is 13.4

The measured viability, T/C associated with CC(C)CC(NC(=O)C(Cc1ccccc1)NC(=O)c1cnccn1)B(O)O (configuration not stated) + NC1CCC(NC2CC2c2ccccc2)CC1 reads 0.09
